These measurements were taken from patent US20180037644A1.

# assayed_target: T1, human IL-33 (mm2) (human, UniProt O95760 112-270)
# T1 chain: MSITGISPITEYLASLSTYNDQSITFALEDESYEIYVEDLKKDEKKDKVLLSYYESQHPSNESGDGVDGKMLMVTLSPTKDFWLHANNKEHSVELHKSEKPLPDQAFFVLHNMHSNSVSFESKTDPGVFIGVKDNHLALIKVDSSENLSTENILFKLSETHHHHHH
# protocol_text: cell-based or functional assay
Under this convention, Condition met denotes IC50, HEK293 ST2 NFkB strictly below 0.2 nM and Condition not met denotes IC50, HEK293 ST2 NFkB at or above 0.2 nM.

# TODO verify IC50, HEK293 ST2 NFkB < 0.2 nM strictly for this binder: IL33-55 (antibody, human IgG1, kappa, V domains shown) VH: EVQLVESGGGLVQPGGSLRLSCAASGFTFSSYWMYWVRQAPGKGLEWVASITPNGGDTYYPDSVKGRFTISRDNAKNSLYLQMNSLRAEDTAVYYCARGHYYYTSYSLGYWGQGTLVTVSS VL: DIQMTQSPSSLSASVGDRVTITCKASQNINKHLDWYQQKPGKAPKLLIYFTNNLQTGVPSRFSGSGSGTDFTLTISSLQPEDFATYYCFQYNNGWTFGGGTKVEIKR
Condition met

Lab note: confirm whether the reported IC50, HEK293 ST2 NFkB for this binder is below 0.2 nM, equality not counting. binder: IL33-61 (antibody, human IgG1, kappa, V domains shown) VH: EVQLVESGGGLVQPGGSLRLSCAASGFTFSSYWMYWVRQAPGKGLEWVASITPNGGETYYPDSVKGRFTISRDNAKNSLYLQMNSLRAEDTAVYYCARGHYYYTDYSLGYWGQGTLVTVSS VL: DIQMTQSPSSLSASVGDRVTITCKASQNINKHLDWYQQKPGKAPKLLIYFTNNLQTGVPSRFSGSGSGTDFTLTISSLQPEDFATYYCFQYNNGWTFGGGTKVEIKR
Condition not met

Strictly below 0.2 nM in IC50, HEK293 ST2 NFkB? IL33-80 (antibody, human IgG1, kappa, V domains shown) VH: EVQLVESGGGLVQPGGSLRLSCAASGFTFSSYWMYWVRQAPGKGLEWVASITPNGGNTYYPDSVKGRFTISRDNAKNSLYLQMNSLRAEDTAVYYCARGHYYYTSYSLGYWGQGTLVTVSS VL: DIQMTQSPSSLSASVGDRVTITCKASQNINKHLDWYQQKPGKAPKLLIYFTNNLQDGVPSRFSGSGSGTDFTLTISSLQPEDFATYYCFQYNNGWTFGGGTKVEIKR
Condition met

Please indicate whether the reported IC50, HEK293 ST2 NFkB of IL33-81 (antibody, human IgG1, kappa, V domains shown) VH: EVQLVESGGGLVQPGGSLRLSCAASGFTFSSYWMYWVRQAPGKGLEWVASITPNGGNTYYPDSVKGRFTISRDNAKNSLYLQMNSLRAEDTAVYYCARGHYYYTSYSLGYWGQGTLVTVSS VL: DIQMTQSPSSLSASVGDRVTITCKASQNINKHLDWYQQKPGKAPKLLIYFTNNLQEGVPSRFSGSGSGTDFTLTISSLQPEDFATYYCFQYNNGWTFGGGTKVEIKR is strictly below 0.2 nM.
Condition met

Record IL33-58 (antibody, human IgG1, kappa, V domains shown) VH: EVQLVESGGGLVQPGGSLRLSCAASGFTFSSYWMYWVRQAPGKGLEWVASITPLGGNTYYPDSVKGRFTISRDNAKNSLYLQMNSLRAEDTAVYYCARGHYYYTSYSLGYWGQGTLVTVSS VL: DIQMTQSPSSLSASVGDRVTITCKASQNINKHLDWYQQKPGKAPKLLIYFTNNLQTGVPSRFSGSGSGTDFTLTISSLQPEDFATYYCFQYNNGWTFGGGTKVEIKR : is its IC50, HEK293 ST2 NFkB strictly below 0.2 nM?
Condition met

Below 0.2 nM on IC50, HEK293 ST2 NFkB? Entry IL33-57 (antibody, human IgG1, kappa, V domains shown) VH: EVQLVESGGGLVQPGGSLRLSCAASGFTFSSYWMYWVRQAPGKGLEWVASITPNGGNTYYPDSVKGRFTISRDNAKNSLYLQMNSLRAEDTAVYYCARGHYYYTDYSLGYWGQGTLVTVSS VL: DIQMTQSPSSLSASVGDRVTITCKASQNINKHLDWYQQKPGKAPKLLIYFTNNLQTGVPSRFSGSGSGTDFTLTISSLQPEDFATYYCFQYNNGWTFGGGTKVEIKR
Condition not met

Please indicate whether the reported IC50, HEK293 ST2 NFkB of IL33-56 (antibody, human IgG1, kappa, V domains shown) VH: EVQLVESGGGLVQPGGSLRLSCAASGFTFSSYWMYWVRQAPGKGLEWVASITPNGGETYYPDSVKGRFTISRDNAKNSLYLQMNSLRAEDTAVYYCARGHYYYTSYSLGYWGQGTLVTVSS VL: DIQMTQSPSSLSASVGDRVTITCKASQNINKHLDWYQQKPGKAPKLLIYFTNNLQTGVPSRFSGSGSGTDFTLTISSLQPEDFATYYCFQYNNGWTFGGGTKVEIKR is strictly below 0.2 nM.
Condition met

Is 0.2 nM strictly greater than the binder's reported IC50, HEK293 ST2 NFkB? binder: IL33-62 (antibody, human IgG1, kappa, V domains shown) VH: EVQLVESGGGLVQPGGSLRLSCAASGFTFSSYWMYWVRQAPGKGLEWVASITPNGGDTYYPDSVKGRFTISRDNAKNSLYLQMNSLRAEDTAVYYCARGHYYYTDYSLGYWGQGTLVTVSS VL: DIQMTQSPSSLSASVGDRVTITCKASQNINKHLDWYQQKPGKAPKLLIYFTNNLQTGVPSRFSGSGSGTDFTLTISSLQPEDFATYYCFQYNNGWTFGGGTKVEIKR
Condition not met

Threshold test, IC50, HEK293 ST2 NFkB < 0.2 nM: IL33-68 (antibody, human IgG1, kappa, V domains shown) VH: EVQLVESGGGLVQPGGSLRLSCAASGFTFSSYWMYWVRQAPGKGLEWVASITPNGGNTYYPDSVKGRFTISRDNAKNSLYLQMNSLRAEDTAVYYCARGHYYYTAYSLGYWGQGTLVTVSS VL: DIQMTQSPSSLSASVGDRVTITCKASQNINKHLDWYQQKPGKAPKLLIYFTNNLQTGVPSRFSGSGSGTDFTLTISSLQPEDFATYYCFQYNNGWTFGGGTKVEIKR
Condition met

Report whether reported IC50, HEK293 ST2 NFkB is lower than 0.2 nM (strictly) for IL33-75 (antibody, human IgG1, kappa, V domains shown) VH: EVQLVESGGGLVQPGGSLRLSCAASGFTFSSYWMYWVRQAPGKGLEWVASITPNGGNTYYPDSVKGRFTISRDNAKNSLYLQMNSLRAEDTAVYYCARGHYYYTSYSLGYWGQGTLVTVSS VL: DIQMTQSPSSLSASVGDRVTITCKASQNIDKHLDWYQQKPGKAPKLLIYFTNNLQTGVPSRFSGSGSGTDFTLTISSLQPEDFATYYCFQYNNGWTFGGGTKVEIKR
Condition met

Does the reported IC50, HEK293 ST2 NFkB of IL33-74 (antibody, human IgG1, kappa, V domains shown) VH: EVQLVESGGGLVQPGGSLRLSCAASGFTFSSYWMYWVRQAPGKGLEWVASITPNGGNTYYPDSVKGRFTISRDNAKNSLYLQMNSLRAEDTAVYYCARGHYYYTSYSLGYWGQGTLVTVSS VL: DIQMTQSPSSLSASVGDRVTITCKASQNINDHLDWYQQKPGKAPKLLIYFTNNLQTGVPSRFSGSGSGTDFTLTISSLQPEDFATYYCFQYNNGWTFGGGTKVEIKR stay below 0.2 nM?
Condition met
